B1: HEEH_KT_rd6_0007 (parent)
chain: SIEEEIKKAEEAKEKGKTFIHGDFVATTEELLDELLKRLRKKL

- Variants of: B1
- assay.explanation: folding stability dG (cDNA display proteolysis); higher = more stable
- stated.conditions: PBS, room temperature
reported.property: folding stability dG
Record the result as number plus unit.

// lookup folding stability dG for `E10Y`
1 kcal/mol

---
// lookup folding stability dG for `I20M`
0.979 kcal/mol

// lookup folding stability dG for `K37D`
0.975 kcal/mol
